For each entry below, report its growth value.
Test system: RXF 393 renal
Assay: NCI-60 one-dose screen, 48 h (100 = growth as untreated, 0 = no growth, -100 = all killed)
Conditions: 10 µM unless noted
About 83,000 compounds went through this panel and 20% of them were active in at least one assay; those are over-represented in the sample as a whole.
Answer with a number only, understood to be in %.

Consider the compound shown here: CC(=O)Nc1ccc(C(=O)/C=C/c2ccccc2)cc1 What is its recorded growth? 97.4

Follow-up entry: COC(=O)CNC(=O)C(=O)c1c(O)c(O)c(C(C)C)c2cc(C)c(-c3c(C)cc4c(C(C)C)c(O)c(O)c(C(=O)C(=O)NCC(=O)OC)c4c3O)c(O)c12 53.8

Follow-up entry: CCC(C)NCc1ccccc1 (stereo not given) 99.3

Follow-up entry: CNCCNc1nc2ccccc2c2c(=O)c3cc(F)ccc3oc12 59.2

Follow-up entry: COc1cc(C2CC(c3ccc(Nc4nc(Nc5ccc(F)cc5)nc(Nc5ccc(Cl)cc5)n4)cc3)=NN2C(C)=O)cc(OC)c1OC (stereo not given) 71.5

---

Tested on: SK-MEL-2 melanoma
Assay: NCI-60 one-dose screen, 48 h
Conditions: 10 µM unless noted
Compounds without any hit were thinned out: in the full panel of roughly 83,000, 20% have a hit. Calls of active or inactive are those of the source. The calls were made as follows: active = growth percent below 10; inactive = the rest.
Select the matching outcome among true (1) for active, false (0) for inactive

Hi, sorry to bother you, what did the test record for NC(=S)c1csc(CCNC(=O)c2ccccc2)n1 ? false (0)

Follow-up entry: O=C1C(Cl)C(c2ccccc2Cl)N1n1cnnc1 (centres undefined) false (0)

Follow-up entry: CCCCCCCCc1cc[n+](CC(=O)c2ccc(Br)cc2)cc1 true (1)

Follow-up entry: O=C1/C(=C/c2ccccc2[N+](=O)[O-])COc2ccc(O)c(O)c21 true (1)

Follow-up entry: Cl.Fc1c[c-]c(-c2ccccn2)c(F)c1.[Pt].c1ccc([PH+](c2ccccc2)c2ccccc2[PH+](c2ccccc2)c2ccccc2)cc1 true (1)

Follow-up entry: Cc1ccc(S(=O)(=O)Nc2sccc2-c2nc(-c3ccccc3)no2)cc1 false (0)

Follow-up entry: C=C1c2c(C)nn(-c3ccc(S(N)(=O)=O)cc3)c2N(C)C23CC1C1(C)c4c(C)nn(-c5ccc(S(N)(=O)=O)cc5)c4N(C)C(C)(CC12)C3 (centres undefined) false (0)

Follow-up entry: COC(=O)Nc1nc2ccc(C(=O)C3CC3)cc2[nH]1 false (0)

Follow-up entry: Cc1csc(NC(=O)c2sc3nc(-c4cccs4)ccc3c2N)n1 false (0)

Follow-up entry: Nc1ccc(S(=O)(=O)Nc2ccsc2-c2nc(-c3ccccc3)no2)cc1 false (0)

Follow-up entry: COc1ccc(OC)c(C(=O)Nc2cccc(-c3cc(=O)c4ccccc4o3)c2)c1 false (0)

Follow-up entry: N#C/C(=C\c1ccc(Br)cc1)n1nnc2ccccc21 true (1)

Follow-up entry: O=C(CCCCCCCn1cc(-c2cccnc2)nn1)Nc1ccccc1-c1ccccc1 false (0)

Follow-up entry: CCN(CC)CCOc1ccc(/C(=C(\C)c2ccc(F)c(OC)c2)c2ccc(Cl)cc2)cc1 false (0)

Follow-up entry: C[C@H]1[C@H](C)CC[C@]2(C(=O)N3CCN(C)CC3)CC[C@]3(C)C(=CC[C@@H]4[C@@]5(C)C/C(=C/c6cccnc6)C(=O)C(C)(C)[C@@H]5CC[C@]43C)[C@H]12 true (1)

Follow-up entry: Cc1cc(Cc2cc(C)cc(C(C)(C)C)c2O)c(O)c(C(C)(C)C)c1 false (0)

Follow-up entry: CC(C)OC(=O)OCOP(=O)(OCOC(=O)OC(C)C)C1CCCN(O)C1=O (centres undefined) false (0)

Follow-up entry: O=C(/C=C/C12c3ccccc3C(c3ccccc31)C1C(=O)N(c3ccc(Cl)cc3)C(=O)C12)c1ccccn1 (centres undefined) true (1)

Follow-up entry: CC(=O)C(C(C)=O)c1nc2sc3cc(Cl)ccc3n2c(=N)c1C#N false (0)
